Target: Human immunodeficiency virus type 1 integrase (Human immunodeficiency virus 1)
Experiment: Inhibition of HIV1 integrase 3'-end processing activity
OUTCOME MEASURE: IC50 (µM)

// below: answered compounds
[[record]]
sample_smiles = "CCN(CC)c1nc(N/N=C/c2ccc([N+](=O)[O-])cc2)nc(Nc2ccc(C)c(Cl)c2)n1"
study_target = "Human immunodeficiency virus type 1 integrase (Human immunodeficiency virus 1)"
outcome_measure = "IC50"
experimental_value = 192

[[record]]
sample_smiles = "NC(=O)NN=C1c2cc(S(=O)(=O)NCc3ccco3)ccc2-c2ccc(S(=O)(=O)NCc3ccco3)cc21"
study_target = "Human immunodeficiency virus type 1 integrase (Human immunodeficiency virus 1)"
outcome_measure = "IC50"
experimental_value = 92

[[record]]
sample_smiles = "O=C(CSc1nnc(-c2ccncc2)[nH]1)c1ccc(O)cc1O"
study_target = "Human immunodeficiency virus type 1 integrase (Human immunodeficiency virus 1)"
outcome_measure = "IC50"
experimental_value = 91


A = COc1ccc(C(=O)NNC(=O)c2cc3ccccc3cc2O)cc1
B = O=C(CNC(=O)c1ccc(Cl)cc1)OCC(=O)c1ccc([N+](=O)[O-])cc1
C = O=C(O)c1cc(-c2ccc(/C=N/Nc3nc4nonc4nc3Nc3ccccc3F)o2)ccc1Cl
D = CNc1nc(N/N=C/c2ccc(-c3ccc([N+](=O)[O-])cc3OC)o2)nc(Nc2ccccc2)n1
E = COc1ccc(Nc2nc(NCc3ccco3)nc(N/N=C/c3ccc(Br)cc3)n2)cc1
Task item: Kindly order the items shown according to IC50, from the highest value down. # format: label list in the order the request specifies
Reply: B, D, A, E, C
(B: 579 µM, D: 81 µM, A: 49 µM, E: 18 µM, C: 7 µM)

---

Target: Human immunodeficiency virus type 1 integrase (Human immunodeficiency virus 1)
Experiment: Inhibition of HIV1 integrase 3'-end processing activity
pIC50: −log10 of the molar value.
OUTCOME MEASURE: pIC50

[[record]]
compound = "O=C(CSc1nc2ccccc2c(=O)n1CC1CCCO1)NNC(=O)c1ccccc1O (stereo not given)"
experimental_value = 4.07


a = O=C(COc1ccc2ccccc2c1)NNC(=O)c1ccccc1O
b = O=C(Nc1ccccc1C(=O)O)c1ccc(C(=O)Nc2ccccc2C(=O)O)cc1
c = O=C(N/N=C/c1cccc([N+](=O)[O-])c1)c1cccc(C(=O)N/N=C/c2cccc([N+](=O)[O-])c2)n1
Task item: // smallest pIC50 at index 0, largest at the end # format: label list in the order the request specifies
Reply: c, b, a

---

Molecular target: Human immunodeficiency virus type 1 integrase (Human immunodeficiency virus 1, UniProt Q7ZJM1)
Sequence (Q7ZJM1 whole entry): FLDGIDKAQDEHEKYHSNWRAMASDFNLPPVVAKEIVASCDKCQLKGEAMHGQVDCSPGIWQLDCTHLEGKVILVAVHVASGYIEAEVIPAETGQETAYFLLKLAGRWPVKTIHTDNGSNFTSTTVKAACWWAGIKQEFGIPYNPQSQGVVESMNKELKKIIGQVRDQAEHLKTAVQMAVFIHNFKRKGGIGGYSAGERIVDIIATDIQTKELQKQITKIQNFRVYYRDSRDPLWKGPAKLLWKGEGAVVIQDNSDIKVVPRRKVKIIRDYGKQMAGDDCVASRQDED
Assay: Inhibition of HIV1 integrase 3'-end processing activity
OUTCOME MEASURE: IC50 (µM)

// below: answered compounds
[[record]]
sample_smiles = "O=C(NNC(=O)c1c(O)c2ccccc2[nH]c1=O)c1cccc([N+](=O)[O-])c1"
outcome_measure = "IC50"
result_units = "µM"
experimental_value = 3.3

[[record]]
sample_smiles = "CCn1c(=O)c(C(=O)NNC(=O)c2ccc([N+](=O)[O-])cc2)c(O)c2ccccc21"
outcome_measure = "IC50"
result_units = "µM"
experimental_value = 32

[[record]]
sample_smiles = "Oc1ccc(Br)cc1/C=N/Nc1nc2nonc2nc1Nc1ccc(F)cc1"
outcome_measure = "IC50"
result_units = "µM"
experimental_value = 16


A = O=C(CSc1nc(SCC(=O)NCc2ccco2)nc(SCC(=O)NCc2ccco2)n1)NCc1ccco1
B = COc1ccc(NC(=O)c2cccc(S(=O)(=O)Nc3ccc(C(=O)O)cc3)c2)cc1
Task item: Field: entry with larger IC50 (options A / B ). Your choice should be expressed through its label.
Reply: B

---

Target: UniProt Q7ZJM1
Assay: Inhibition of HIV1 integrase strand transfer activity in presence of magnesium cofactor
OUTCOME MEASURE: IC50 (µM)
// units = µM; emit number, no label

IC50 reported for this molecule CCOc1ccc(-c2c(C#N)c(N)nc(SCC(=O)c3cc4cc(Br)cc(Br)c4oc3=O)c2C#N)cc1 : 9.6

---

Biological target: Human immunodeficiency virus type 1 integrase (Human immunodeficiency virus 1)
Assay: Inhibition of HIV1 integrase 3'-end processing activity
OUTCOME MEASURE: IC50 (µM)

// below: answered compounds
[[record]]
compound = "Oc1ccc(-c2csc(Nc3ncccn3)n2)cc1O"
outcome_measure = "IC50"
experimental_value = 300

[[record]]
compound = "CCOc1ccc(-c2c(C#N)c(N)nc(SCC(=O)c3cc4cc(Br)cc(Br)c4oc3=O)c2C#N)cc1"
outcome_measure = "IC50"
experimental_value = 6

[[record]]
compound = "O=C(NNC(=O)c1c(O)c2ccccc2[nH]c1=O)c1ccccc1[N+](=O)[O-]"
outcome_measure = "IC50"
experimental_value = 54

[[record]]
compound = "CCn1c(=O)c(C(=O)NNC(=O)c2cccc([N+](=O)[O-])c2)c(O)c2ccccc21"
outcome_measure = "IC50"
experimental_value = 37


A = Nc1cc(O)nc(SCC(=O)c2ccc(O)c(O)c2)n1
B = O=[N+]([O-])c1cc(Br)cc(/C=N/Nc2nc(Nc3ccccc3)nc(Nc3ccccc3)n2)c1O
C = CCOc1cc(Br)cc(/C=N/c2ncccc2O)c1O
D = COc1cccc(C(=O)NNC(=O)c2ccc3ccccc3c2O)c1
E = O=C(Nc1cccc(O)c1)c1cc(C(=O)Nc2cccc(O)c2)cc(N2C(=O)c3ccccc3C2=O)c1
Task item: Kindly order the items shown according to IC50, from the highest value down. # format: label list in the order the request specifies
Reply: A, C, E, D, B

---

Listed compounds paired with reported pIC50
Molecular target: Human immunodeficiency virus type 1 integrase (Human immunodeficiency virus 1, UniProt Q7ZJM1)
Test: Inhibition of HIV1 integrase 3'-end processing activity
pIC50: −log10 of the molar value.

// below: answered compounds
[[record]]
sample_smiles = "O=C(/C=C/c1ccc2c(c1)OCO2)c1ccccc1O"
experimental_value = "< 4.00"

[[record]]
sample_smiles = "CCCn1c(=O)c(C(=O)NNC(=O)c2ccccc2)c(O)c2ccccc21"
experimental_value = 4.00

[[record]]
sample_smiles = "Cc1ccc(O)c(/C=N/Nc2nc3c(c(=O)[nH]c(=O)n3C)n2Cc2ccccc2)c1"
experimental_value = "< 4.00"

[[record]]
sample_smiles = "Cc1nc(SCC(=O)c2ccc(O)c(O)c2)c(C#N)c(CC(C)C)c1C(N)=O"
experimental_value = "< 4.00"


pIC50 reported for this compound CCCn1c(=O)c(C(=O)NNC(=O)CC(=O)OCC)c(O)c2ccccc21 : < 4.00

---

Molecular target: Human immunodeficiency virus type 1 integrase (Human immunodeficiency virus 1, UniProt Q7ZJM1)
Assay: Inhibition of HIV1 integrase strand transfer activity
pIC50: −log10 of the molar value.
Listed molecules paired with reported pIC50

// below: answered molecules
[[record]]
molecule = "COc1ccc(NC(=O)CSc2nc(-c3ccncc3)nn2CC(=O)NCc2ccco2)cc1"
outcome_measure = "pIC50"
experimental_value = "< 4.00"

[[record]]
molecule = "Cn1c(=O)[nH]c(=O)c2c1nc(SCC(O)CCl)n2CC(O)COc1ccc(Cl)cc1 (stereo not drawn)"
outcome_measure = "pIC50"
experimental_value = "< 4.00"


Consider now this further molecule.
pIC50 reported for this molecule COc1cc(C(=O)/C=C/c2ccc3c(c2)OCO3)cc(OC)c1OC : < 4.00

---

Target: Human immunodeficiency virus type 1 integrase (Human immunodeficiency virus 1, UniProt Q7ZJM1)
Experiment: Inhibition of HIV1 integrase strand transfer activity
pIC50: −log10 of the molar value.
OUTCOME MEASURE: pIC50

I = Cc1nc(SCC(=O)c2ccc(O)c(O)c2)c(C#N)c(CC(C)C)c1C(N)=O
II = O=C(NNC(=O)c1c(O)c2ccccc2[nH]c1=O)c1ccccc1[N+](=O)[O-]
Task item: Looking at recorded values for pIC50, does I or II come in lower? Your choice should be expressed through its label.
Reply: I
(I: 4.07, II: 4.34)

---

Molecular target: UniProt Q7ZJM1
Experiment: Inhibition of HIV1 integrase 3'-end processing activity
OUTCOME MEASURE: IC50 (µM)

[[record]]
sample_smiles = "Cc1ccc(NC(=O)CN2C(=O)/C(=N\\NC(=O)c3ccc4ccccc4n3)c3ccccc32)cc1"
result_units = "µM"
experimental_value = 84

[[record]]
sample_smiles = "CCCc1nc2ccccc2c(=O)n1NC(=O)c1c(O)c2cccc3c2n(c1=O)CCC3"
result_units = "µM"
experimental_value = 64


---

Molecular target: Human immunodeficiency virus type 1 integrase (Human immunodeficiency virus 1)
Experiment: Inhibition of HIV1 integrase strand transfer activity
pIC50: −log10 of the molar value.
OUTCOME MEASURE: pIC50

// below: answered compounds
[[record]]
sample_smiles = "Cc1ccc(NP(=O)(Oc2ccccc2)Oc2ccccc2)cc1"
outcome_measure = "pIC50"
experimental_value = "< 3.00"

[[record]]
sample_smiles = "O=C(/C=C/c1ccc2c(c1)OCO2)c1ccccc1O"
outcome_measure = "pIC50"
experimental_value = "< 4.00"

[[record]]
sample_smiles = "COc1ccc(OC)c(C(=O)/C=C/c2ccc3c(c2)OCO3)c1"
outcome_measure = "pIC50"
experimental_value = "< 4.00"

[[record]]
sample_smiles = "CCCCCCc1nc2ccccc2c(=O)n1NC(=O)c1c(O)c2ccccc2n(CC)c1=O"
outcome_measure = "pIC50"
experimental_value = "< 4.00"


pIC50 reported for this compound CCCn1c(=O)c(C(=O)NNC(=O)COc2ccccc2)c(O)c2ccccc21 : < 4.00
